Cited source for all entries: patent US20170165338A1

- MEASURED_TARGET: HLA-A*02 (human)
- METHOD: UV-exchange b2m ELISA
EXPERIMENTAL_ENDPOINT: peptide exchange yield

Illustrative cases are given below, each with its answer.
{"BINDER": "SLLGGTFVGI", "peptide exchange yield": "50 to 75%"}
{"BINDER": "ILGDLSHLL", "peptide exchange yield": "50 to 75%"}
{"BINDER": "ILGEVLAQL", "peptide exchange yield": "50 to 75%"}
{"BINDER": "ILAPFSVDL", "peptide exchange yield": "50 to 75%"}
{"BINDER": "MMVGDLLEV", "peptide exchange yield": "50 to 75%"}
{"BINDER": "ILLKNLVTI", "peptide exchange yield": "20 to 49%"}
{"BINDER": "GLLPLLHRA", "peptide exchange yield": "> 75%"}

Turning now to a further binder:
Request: Return the recorded peptide exchange yield value; entry: "TLDEKVAEL"
Result: 50 to 75%
